Catalogue of compounds with associated melting point

Answered cases to consult:
Input: Request the reported melting point associated with Nc1ccccc1NC(=O)c1ccc(CNC(=O)OCc2ccc(Cl)nc2)cc1
Output: 180 to 185 °C

Input: Request the reported melting point associated with Cc1ccc(C(=O)NCc2ccc(C(=O)Nc3ccccc3N)cc2)cn1
Output: 186 to 190 °C (dec.)

Input: Request the reported melting point associated with CN1CCCC(COC(=O)NCc2ccc(C(=O)Nc3ccccc3N)cc2)C1 (stereo not shown)
Output: 130 to 135 °C

Input: Request the reported melting point associated with Nc1ccccc1NC(=O)c1ccc(CNC(=O)c2ccccn2)cc1
Output: 173 to 178 °C (dec.)

Input: Request the reported melting point associated with Nc1ccccc1NC(=O)c1ccc(-n2cc(COCc3ccccn3)oc2=O)cc1
Output: 172 to 174 °C

Further cases:
Input: Request the reported melting point associated with Nc1ccccc1CC(=O)Nc1ccc(C(=O)Nc2ccccc2N)cc1
Output: 177 to 182 °C (dec.)

Input: Request the reported melting point associated with Cl.Nc1ccccc1NC(=O)c1ccc(-n2cc(COCc3ccccc3)oc2=O)cc1
Output: 181 to 183 °C

Input: Request the reported melting point associated with Nc1ccccc1NC(=O)c1ccc(CNC(=O)c2ccno2)cc1
Output: 183 to 185 °C (dec.)

Input: Request the reported melting point associated with Nc1ccccc1NC(=O)c1ccc(CNC(=O)OCc2ccccn2)cc1
Output: 166 to 167 °C

Input: Request the reported melting point associated with Nc1ccccc1NC(=O)c1ccc(CNC(=O)c2ccco2)cc1
Output: 197 °C (dec.)

Input: Request the reported melting point associated with Nc1ccccc1NC(=O)c1ccc(NC(=O)COc2cccnc2)cc1
Output: 175 to 179 °C

Input: Request the reported melting point associated with CN(CC(=O)Nc1ccc(C(=O)Nc2ccccc2N)cc1)Cc1cccnc1
Output: 154 to 155 °C

Input: Request the reported melting point associated with Cl.Nc1ccccc1NC(=O)c1ccc(CNC(=O)c2ccccc2)cc1
Output: 206 to 209 °C

Input: Request the reported melting point associated with Nc1ccccc1NC(=O)c1ccc(CNc2c(NCc3cccnc3)c(=O)c2=O)cc1
Output: 230 °C

Input: Request the reported melting point associated with Nc1ccccc1NC(=O)c1ccc(NC(=O)COCc2ccccn2)cc1
Output: 171 to 173 °C

Input: Request the reported melting point associated with CC(Oc1cccnc1)C(=O)Nc1ccc(C(=O)Nc2ccccc2N)cc1 (stereo not shown)
Output: 193 to 196 °C

Input: Request the reported melting point associated with Nc1ccccc1NC(=O)c1ccc(CNC(=O)OCc2cncs2)cc1
Output: 168 to 175 °C

Input: Request the reported melting point associated with Nc1ccccc1NC(=O)c1ccc(CNC(=O)OCc2ccncc2)cc1
Output: 180 to 183 °C

Input: Request the reported melting point associated with Nc1ccccc1NC(=O)c1ccc(CNC(=O)OCCc2ccccn2)cc1
Output: 146 to 148 °C

----------
Catalogue of compounds with associated melting point

Answered cases to consult:
Input: Request the reported melting point associated with Nc1ccccc1NC(=O)c1ccc(-n2cc(COc3cccc([N+](=O)[O-])c3)oc2=O)cc1 [Example 141]
Output: 230 °C (dec.)

Input: Request the reported melting point associated with Nc1cccc(CC(=O)NCc2ccc(C(=O)Nc3ccccc3N)cc2)c1 [Example 28]
Output: 171 to 176 °C

Input: Request the reported melting point associated with Nc1ccccc1NC(=O)c1ccc(CNC(=O)CCc2cccnc2)cc1 [Example 30]
Output: 183 to 186 °C

Input: Request the reported melting point associated with CC(OCc1cccnc1)C(=O)Nc1ccc(C(=O)Nc2ccccc2N)cc1 (stereo not drawn) [Example 131]
Output: 144 to 148 °C

Input: Request the reported melting point associated with Cc1cc(C(=O)Nc2ccccc2N)ccc1NC(=O)COCc1cccnc1 [Example 123]
Output: 178 to 181 °C (dec.)

Further cases:
Input: Request the reported melting point associated with COc1ccc(N)c(NC(=O)c2ccc(CNC(=O)COc3cccnc3)cc2)c1 [Example 33]
Output: 141 to 144 °C

----------
- System: A2780 cells
- protocol: Test for induction of differentiation in A2780 cells (ALP activity, ALPmin)
- Format: cell-based, human
- particulars: A2780 cells, 3 days incubation; minimum concentration of the drug inducing increase of ALP activity
Catalogue of molecules with associated minimal effective concentration
Please answer using a numeric value trailed by its unit.

Answered cases to consult:
Input: Request the reported minimal effective concentration associated with Nc1cccc(NC(=O)NCc2ccc(C(=O)Nc3ccccc3N)cc2)c1
Output: 3 µM

Input: Request the reported minimal effective concentration associated with Nc1ccccc1NC(=O)c1ccc(CN2CCN(Cc3cccnc3)C2=O)cc1
Output: 3 µM

Input: Request the reported minimal effective concentration associated with O=C(NCc1ccc(C(=O)Nc2ccccc2O)cc1)NCc1cccnc1
Output: 3 µM

Input: Request the reported minimal effective concentration associated with COC(=O)c1ccc(C(=O)NCc2ccc(C(=O)Nc3ccccc3N)cc2)cc1
Output: 1 µM

Input: Request the reported minimal effective concentration associated with Nc1ccccc1NC(=O)c1ccc(CNC(=O)OC2CN3CCC2CC3)cc1 (stereo not drawn)
Output: 10 µM

Input: Request the reported minimal effective concentration associated with Nc1ccccc1NC(=O)c1ccc(CNC(=O)NCc2cccnc2)cc1
Output: 0.3 µM

Input: Request the reported minimal effective concentration associated with Cc1ncsc1CCOC(=O)NCc1ccc(C(=O)Nc2ccccc2N)cc1
Output: 3 µM

Input: Request the reported minimal effective concentration associated with Nc1ccc(F)cc1NC(=O)c1ccc(CNC(=O)NCc2cccnc2)cc1
Output: 3 µM

Further cases:
Input: Request the reported minimal effective concentration associated with Cn1cccc1C(=O)NCc1ccc(C(=O)Nc2ccccc2N)cc1
Output: 1 µM

----------
Catalogue of compounds with associated melting point

Input: Request the reported melting point associated with Nc1ccccc1NC(=O)c1ccc(CNC(=S)OCc2cccnc2)cc1
Output: 154 to 156 °C (dec.)

Input: Request the reported melting point associated with Nc1ccccc1NC(=O)c1ccc(CNC(=O)Cc2cccnc2)cc1
Output: 127 °C

Input: Request the reported melting point associated with Nc1ccccc1NC(=O)c1ccc(CNC(=O)c2cccs2)cc1
Output: 202 to 205 °C (dec.)

Input: Request the reported melting point associated with Cl.Nc1ccccc1NC(=O)c1ccc(CNC(=O)c2ccccc2[N+](=O)[O-])cc1
Output: 210 to 212 °C (dec.)

Further cases:
Input: Request the reported melting point associated with Nc1ccccc1NC(=O)c1ccc(NC(=O)CCC(=O)c2cccnc2)cc1
Output: 190 to 194 °C

----------
measured-parameter: melting point

Input: Request the reported melting point associated with Cc1cccc(COC(=O)NCc2ccc(C(=O)Nc3ccccc3N)cc2)n1
Output: 138 °C

Input: Request the reported melting point associated with Nc1ccccc1NC(=O)c1ccc(CNC(=O)OCC2=CN(c3ccccc3)CO2)cc1
Output: 192 to 195 °C

Input: Request the reported melting point associated with Nc1ccccc1NC(=O)c1ccc(CNC(=O)Oc2cccnc2)cc1
Output: 209 °C (dec.)

Further cases:
Input: Request the reported melting point associated with Cc1ncccc1C(=O)NCc1ccc(C(=O)Nc2ccccc2N)cc1
Output: 191 to 194 °C (dec.)

Input: Request the reported melting point associated with Nc1ccccc1NC(=O)c1ccc(NC(=O)CNCc2cccnc2)cc1
Output: 160 °C (dec.)

Input: Request the reported melting point associated with Nc1ccccc1NC(=O)c1ccc(CNC(=O)OCc2ccc(-n3ccnc3)cc2)cc1
Output: 195 to 198 °C

Input: Request the reported melting point associated with Nc1ccccc1NC(=O)c1ccc(CNC(=O)c2ccc3ncccc3c2)cc1
Output: 209 to 210 °C

----------
Catalogue of compounds with associated melting point

Answered cases to consult:
Input: Request the reported melting point associated with Nc1ccccc1NC(=O)c1ccc(NC(=O)Cc2ccccc2)cc1 [Example 100]
Output: 232 to 237 °C

Input: Request the reported melting point associated with Nc1ccccc1NC(=O)c1ccc(CNC(=O)c2cc3ccncc3o2)cc1 [Example 39]
Output: 210 °C (dec.)

Input: Request the reported melting point associated with Cc1ccc(COC(=O)NCc2ccc(C(=O)Nc3ccccc3N)cc2)cn1 [Example 57]
Output: 164 to 165 °C

Input: Request the reported melting point associated with Nc1ccccc1NC(=O)c1ccc(NC(=O)Cc2ccc([N+](=O)[O-])cc2)cc1 [Example 104]
Output: 222 to 226 °C

Further cases:
Input: Request the reported melting point associated with CC(Oc1cccnc1)C(=O)NCc1ccc(C(=O)Nc2ccccc2N)cc1 (stereo not drawn) [Example 47]
Output: 171 to 173 °C (dec.)

Input: Request the reported melting point associated with Nc1ccccc1NC(=O)c1ccc(CNC(=O)c2cc3ncccc3o2)cc1 [Example 38]
Output: 191 °C (dec.)

Input: Request the reported melting point associated with Cc1ncccc1COC(=O)NCc1ccc(C(=O)Nc2ccccc2N)cc1 [Example 56]
Output: 164 to 165 °C

Input: Request the reported melting point associated with Nc1ccccc1NC(=O)c1ccc(CNC(=O)COc2cncc(Cl)c2)cc1 [Example 32]
Output: 199 to 201 °C

Input: Request the reported melting point associated with Nc1ccccc1NC(=O)c1ccc(CNC(=O)CCC(=O)c2cccnc2)cc1 [Example 31]
Output: 145 to 147 °C (dec.)
